Target: MaxL homodimer (Homo sapiens, UniProt P61244 1-160)
Sequence (P61244 whole entry): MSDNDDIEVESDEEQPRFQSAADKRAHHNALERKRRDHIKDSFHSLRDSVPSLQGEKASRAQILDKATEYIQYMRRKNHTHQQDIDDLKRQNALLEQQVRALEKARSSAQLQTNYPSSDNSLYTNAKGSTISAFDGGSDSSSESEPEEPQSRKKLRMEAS
Experiment: universal protein-binding microarray (PBM); PBS-based mixture, 10 nM His-tagged protein dimer, 2% milk, 200 ng/uL BSA, 50 ng/uL salmon testes DNA, 0.02% TX-100; detection with Alexa 488 anti-His antibody;; high values mean tight binding;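 note: fluorescence intensity normalized to that of the highest-ranked 8-mer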
Settings: protein: recombinant; tags: C-terminal His-tag (pET21a); chain copies: 2; dsDNA, one strand shown
In all, about 33,000 sequences were measured (“normalized occupancy”: median about 0.075, highest 2% from about 0.095 on). Shown is part of a subset that was picked to be rich in the highest values.
measure: log10 of binding signal (log10 of the value in normalized occupancy)
Scale type: logarithmic (base 10). Underlying binding signal unit: normalized occupancy.

Reference set (5 entries):
[[record]]
ordered_residues = "AGTACTAA"
tested_system = "MaxL homodimer (Homo sapiens, UniProt P61244 1-160)"
observed_value = -1.11

[[record]]
ordered_residues = "AAACGAGG"
tested_system = "MaxL homodimer (Homo sapiens, UniProt P61244 1-160)"
observed_value = -1.09

[[record]]
ordered_residues = "CAACGTAA"
tested_system = "MaxL homodimer (Homo sapiens, UniProt P61244 1-160)"
observed_value = -1.11

[[record]]
ordered_residues = "AAACGTAC"
tested_system = "MaxL homodimer (Homo sapiens, UniProt P61244 1-160)"
observed_value = -1.13

[[record]]
ordered_residues = "ACACGTGA"
tested_system = "MaxL homodimer (Homo sapiens, UniProt P61244 1-160)"
observed_value = -0.42


// input: 6 sequences below; output: log10 of binding signal for each
1. ACACGTAT
2. CGGACCCC
3. AGACGTGA
4. ACACGATC
5. ATGTAGGC
6. CTTCACCA

RESULT:
-1.08
-1.14
-1.09
-1.09
-1.11
-1.07

// input: 4 sequences below; output: log10 of binding signal for each
1. CAACGTTC
2. GAATTCTA
3. CAACGTCA
4. AAACGTGC

RESULT:
1: -1.12; 2: -1.11; 3: -1.13; 4: -1.00

// input: 7 sequences below; output: log10 of binding signal for each
1. GGCTTCCA
2. GAACGTGC
3. ACACGAGA
4. ACACGTGG
5. ACACGACT
6. ATAAAAGG
7. ACACGAGG

RESULT:
[-1.14, -1.03, -1.01, -0.07, -1.09, -1.11, -0.84]
